Test system: K. pneumoniae 2011E
method: In vitro antibacterial activity test (broth microdilution)
Format: cell-based
condition label: Klebsiella pneumoniae, 2011E, K. pneumoniae 2011E; read-out: MIC90
Field: label. Allowed values: Fulfilled (MIC90 < 2 µg/mL) or Not fulfilled (MIC90 >= 2 µg/mL).

Query block: Is 2 µg/mL strictly greater than the compound's reported MIC90? compound: CC(C)(O/N=C(\C(=O)N[C@@H]1C(=O)N2C(C(=O)[O-])=C(/C=C/C[n+]3cnc(N)c(NCCNC(=O)c4cc(=O)c(O)cn4O)c3)CSC12)c1csc(N)n1)C(=O)O (stereo partly shown) [Compound 8]
Result block: Fulfilled

Query block: Given CC(C)(O/N=C(\C(=O)N[C@@H]1C(=O)N2C(C(=O)[O-])=C(C[n+]3cnc(N)c(NC(=O)CNC(=O)c4ccc(O)c(O)c4)c3)CSC12)c1csc(N)n1)C(=O)O (stereo partly shown) [Compound 32] , is recorded MIC90 strictly lower than 2 µg/mL?
Result block: Fulfilled

Query block: For C[C@H](O/N=C(\C(=O)N[C@@H]1C(=O)N2C(C(=O)[O-])=C(C[n+]3cnc(N)c(NC(=O)CCNC(=O)c4cc(=O)c(O)cn4O)c3)CSC12)c1nc(N)sc1Cl)C(=O)O (stereo partly shown) [Compound 20] , is the recorded MIC90 below the cut-off of 2 µg/mL?
Result block: Not fulfilled

Query block: Field: below-cutoff. Rule: recorded MIC90 strictly less than 2 µg/mL. Subject: CC(C)(O/N=C(\C(=O)N[C@@H]1C(=O)N2C(C(=O)[O-])=C(C[n+]3ccccc3)CS[C@H]12)c1csc(N)n1)C(=O)O [Ceftazidime, reference compound]
Result block: Fulfilled

Query block: API: query returns whether the compound falls strictly under 2 µg/mL in MIC90. Query: CC(C)(O/N=C(\C(=O)N[C@@H]1C(=O)N2C(C(=O)[O-])=C(/C=C/C[n+]3cnc(N)c(NCCNC(=O)c4cc(=O)c(O)cn4O)c3)CSC12)c1nc(N)sc1Cl)C(=O)O (stereo partly shown) [Compound 26]
Result block: Fulfilled

Query block: Quick check: MIC90 of CC(C)(O/N=C(\C(=O)N[C@@H]1C(=O)N2C(C(=O)[O-])=C(C[n+]3cnc(N)c(NC(=O)CCNC(=O)c4cc(=O)c(O)cn4O)c3)CSC12)c1nsc(N)n1)C(=O)O (stereo partly shown) [Compound 19] under 2 µg/mL?
Result block: Not fulfilled
